meta.source: ChEMBL document CHEMBL4020708

Molecular target: UniProtKB P08684
Sequence (P08684 whole entry): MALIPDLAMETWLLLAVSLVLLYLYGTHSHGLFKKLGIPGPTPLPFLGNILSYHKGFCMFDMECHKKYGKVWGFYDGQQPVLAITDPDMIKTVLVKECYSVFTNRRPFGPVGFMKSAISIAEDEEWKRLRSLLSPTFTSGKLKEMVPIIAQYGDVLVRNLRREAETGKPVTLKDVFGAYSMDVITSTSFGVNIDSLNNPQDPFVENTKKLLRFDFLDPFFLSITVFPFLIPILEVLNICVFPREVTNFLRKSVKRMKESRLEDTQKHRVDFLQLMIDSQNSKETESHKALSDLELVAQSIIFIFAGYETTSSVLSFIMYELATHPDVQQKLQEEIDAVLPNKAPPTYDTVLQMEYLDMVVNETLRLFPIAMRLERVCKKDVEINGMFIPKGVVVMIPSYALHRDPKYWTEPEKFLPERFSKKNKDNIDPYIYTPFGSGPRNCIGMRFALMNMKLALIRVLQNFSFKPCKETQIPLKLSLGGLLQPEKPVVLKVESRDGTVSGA
Experiment: Time-dependent inhibition of CYP3A4 in human liver microsomes assessed as reduction in testosterone to 6beta-hydroxytestosterone conversion by measuring remaining activity at 30 uM preincubated for 60 mins followed by testosterone addition measured after 20 mins in presence of NADPH by UPLC analysis relative to control
Format: ADME
Details: probe testosterone (6beta-hydroxylation), read-out: Activity
Please go through the items and note down their activity at 20 min, 30 µM.
Answers are plain numbers, in %.

Guide cases for activity at 20 min, 30 µM, answers given:
compound=O=C(CCc1cnccc1-c1cnn(C2CC2)c1)Nc1ccc(CN2CCOCC2)cc1 result_value=59
compound=O=C(/C=C/c1cnccc1-c1cnn(C2CC2)c1)Nc1ccc(CN2CCOCC2)cc1 result_value=54
compound=Cn1cc(-c2ccncc2CCC(=O)Nc2ccc(CN3CCOCC3)cc2)cn1 result_value=71
compound=Cn1cc(-c2ccncc2/C=C/C(=O)Nc2ccccc2)cn1 result_value=97

Below: the item to evaluate.
Fill in the blank: the reported activity at 20 min, 30 µM of CC1COCCN1Cc1ccc(NC(=O)/C=C/c2cnccc2-c2cnn(C)c2)cc1 (stereo not given) is ____.
59

* * *

Give measured pEC50 for each item. Keep answers brief.
Molecular target: Cyclin-dependent kinase 8 (Homo sapiens, UniProt P49336)
Sequence (P49336 whole entry): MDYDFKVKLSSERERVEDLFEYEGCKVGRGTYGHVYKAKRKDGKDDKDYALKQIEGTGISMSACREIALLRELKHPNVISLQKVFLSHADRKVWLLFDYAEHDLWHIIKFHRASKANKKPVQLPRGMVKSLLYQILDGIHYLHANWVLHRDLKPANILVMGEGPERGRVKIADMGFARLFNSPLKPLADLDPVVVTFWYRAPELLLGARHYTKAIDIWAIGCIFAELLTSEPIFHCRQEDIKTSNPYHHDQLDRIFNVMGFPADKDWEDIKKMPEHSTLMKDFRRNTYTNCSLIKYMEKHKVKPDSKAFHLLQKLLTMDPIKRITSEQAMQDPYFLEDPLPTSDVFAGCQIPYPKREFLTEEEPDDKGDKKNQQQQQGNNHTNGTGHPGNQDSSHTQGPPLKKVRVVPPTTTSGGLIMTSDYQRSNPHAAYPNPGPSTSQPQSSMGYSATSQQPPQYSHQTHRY
Test: Inhibition of CDK8 in human SW480 cells assessed as reduction in IFN-gamma induced STAT1 phosphorylation at Ser727 residues preincubated for 2 hrs followed by IFN-gamma addition measured after 1 hr by In-cell western assay
One number for each entry, as −log10 of the molar value.

Field: example entries. Status: answers known.
sample_smiles=O=C(/C=C/c1cnccc1-c1cnsc1)Nc1ccc(CN2CCOCC2)cc1 assay_target="Cyclin-dependent kinase 8 (Homo sapiens, UniProt P49336)" parameter=pEC50 result_value=6.96
sample_smiles=O=C(CCc1cnccc1-c1cnn(C2CC2)c1)Nc1ccc(CN2CCOCC2)cc1 assay_target="Cyclin-dependent kinase 8 (Homo sapiens, UniProt P49336)" parameter=pEC50 result_value=6.89

Please look at the following molecule next.
Please look up its pEC50: `O=C(/C=C/c1cnccc1-c1cnn(CC(F)(F)F)c1)Nc1ccc(CN2CCOCC2)cc1`
6.82

* * *

Target: Cyclin-dependent kinase 8 (Homo sapiens, UniProt P49336)
Assay: Inhibition of CDK8 in human SW480 cells assessed as reduction in IFN-gamma induced STAT1 phosphorylation at Ser727 residues preincubated for 2 hrs followed by IFN-gamma addition measured after 1 hr by In-cell western assay
pEC50: −log10 of the molar value.
parameter: pEC50

sample_smiles=O=C(/C=C/c1cnccc1-c1cn[nH]c1)Nc1ccc(CN2CCOCC2)cc1 parameter=pEC50 result_value="6.43 to 7.68"
sample_smiles=O=C(/C=C/c1cnccc1-c1cnn(C(F)F)c1)Nc1ccc(CN2CCOCC2)cc1 parameter=pEC50 result_value="7.30 to 7.96"
sample_smiles=Cn1cc(-c2ccncc2/C=C/C(N)=O)cn1 parameter=pEC50 result_value="< 5.00"

Then there is this molecule:
I would be grateful if you could share the reported pEC50 for `Cn1cnc2cc(-c3ccncc3/C=C/C(=O)Nc3ccc(CN4CCOCC4)cc3)ccc21` .
< 5.00
